Origin of measurements: paper PMC8279156

molecular target: isolated HER2 (Homo sapiens); assay: HER2 inhibition assay, radiometric protein kinase assay (33PanQinase Activity Assay); conditions: isolated HER2, radiometric assay, 10 concentrations in singlicate
pIC50: −log10 of the molar value.
measurement label: pIC50

molecule="CN(C)c1nc(Cl)nc2c1ncn2C1CN(S(=O)(=O)c2ccc([N+](=O)[O-])cc2)c2ccccc2CO1 (stereo not shown)" op== numeric_readout=4.84
molecule="O=[N+]([O-])c1ccccc1S(=O)(=O)N1CC(n2cnc3c(Nc4ccccc4)nc(Cl)nc32)OCc2ccccc21 (stereo not shown)" op=< numeric_readout=4.00
molecule="O=[N+]([O-])c1ccc(S(=O)(=O)N2CC(n3cnc4c(Cl)nc(Cl)nc43)OCc3ccccc32)cc1 (racemic)" op== numeric_readout=4.55
molecule="O=[N+]([O-])c1ccccc1S(=O)(=O)N1CC(n2cnc3c(Sc4ccccc4)nc(Cl)nc32)OCc2ccccc21 (stereo not shown)" op== numeric_readout=4.94
molecule="Cc1ccc(S(=O)(=O)N2CC(n3cnc4c(Cl)nc(Cl)nc43)OCc3ccccc32)cc1 (stereo not shown)" op=< numeric_readout=4.00
molecule="O=[N+]([O-])c1ccccc1S(=O)(=O)N1CC(n2cnc3c(Oc4ccccc4)nc(Cl)nc32)OCc2ccccc21 (stereo not shown)" op== numeric_readout=4.61
molecule="O=[N+]([O-])c1ccc(S(=O)(=O)N2CC(n3cnc4c(Oc5ccccc5)nc(Cl)nc43)OCc3ccccc32)cc1 (stereo not shown)" op== numeric_readout=4.88

----------
List of melting point values.
measurement label: melting point

compound="CN(C)c1nc(Cl)nc2c1ncn2C1CN(S(=O)(=O)c2ccc([N+](=O)[O-])cc2)c2ccccc2CO1 (stereo not shown) [Compound 9c]" result="203 to 205 °C"
compound="Cc1ccc(S(=O)(=O)N2CC(n3cnc4c(Br)ncnc43)OCc3ccccc32)cc1 (stereo not shown) [Compound 7b]" result="169 to 171 °C"
compound="O=[N+]([O-])c1ccc(S(=O)(=O)N2CC(n3cnc4c(Nc5ccccc5)nc(Cl)nc43)OCc3ccccc32)cc1 (stereo not shown) [Compound 9d]" result="182 to 183 °C"
compound="O=[N+]([O-])c1ccccc1S(=O)(=O)N1CC(n2cnc3c(Sc4ccccc4)nc(Cl)nc32)OCc2ccccc21 (stereo not shown) [Compound 9e]" result="212 to 214 °C"
compound="O=[N+]([O-])c1ccc(S(=O)(=O)N2CC(n3cnc4c(Oc5ccccc5)nc(Cl)nc43)OCc3ccccc32)cc1 (stereo not shown) [Compound 9b]" result="210 to 212 °C"
compound="Cc1ccc(S(=O)(=O)N2CC(n3cnc4c(Cl)ncnc43)OCc3ccccc32)cc1 (stereo not shown) [Compound 7a]" result="178 to 180 °C"
compound="Cc1ccc(S(=O)(=O)N2CC(n3cnc4c(Cl)nc(Cl)nc43)OCc3ccccc32)cc1 (stereo not shown) [Compound 7c]" result="193 to 195 °C"

----------
Target: isolated HER2 (Homo sapiens, UniProt P04626)
Sequence (P04626 23-1255): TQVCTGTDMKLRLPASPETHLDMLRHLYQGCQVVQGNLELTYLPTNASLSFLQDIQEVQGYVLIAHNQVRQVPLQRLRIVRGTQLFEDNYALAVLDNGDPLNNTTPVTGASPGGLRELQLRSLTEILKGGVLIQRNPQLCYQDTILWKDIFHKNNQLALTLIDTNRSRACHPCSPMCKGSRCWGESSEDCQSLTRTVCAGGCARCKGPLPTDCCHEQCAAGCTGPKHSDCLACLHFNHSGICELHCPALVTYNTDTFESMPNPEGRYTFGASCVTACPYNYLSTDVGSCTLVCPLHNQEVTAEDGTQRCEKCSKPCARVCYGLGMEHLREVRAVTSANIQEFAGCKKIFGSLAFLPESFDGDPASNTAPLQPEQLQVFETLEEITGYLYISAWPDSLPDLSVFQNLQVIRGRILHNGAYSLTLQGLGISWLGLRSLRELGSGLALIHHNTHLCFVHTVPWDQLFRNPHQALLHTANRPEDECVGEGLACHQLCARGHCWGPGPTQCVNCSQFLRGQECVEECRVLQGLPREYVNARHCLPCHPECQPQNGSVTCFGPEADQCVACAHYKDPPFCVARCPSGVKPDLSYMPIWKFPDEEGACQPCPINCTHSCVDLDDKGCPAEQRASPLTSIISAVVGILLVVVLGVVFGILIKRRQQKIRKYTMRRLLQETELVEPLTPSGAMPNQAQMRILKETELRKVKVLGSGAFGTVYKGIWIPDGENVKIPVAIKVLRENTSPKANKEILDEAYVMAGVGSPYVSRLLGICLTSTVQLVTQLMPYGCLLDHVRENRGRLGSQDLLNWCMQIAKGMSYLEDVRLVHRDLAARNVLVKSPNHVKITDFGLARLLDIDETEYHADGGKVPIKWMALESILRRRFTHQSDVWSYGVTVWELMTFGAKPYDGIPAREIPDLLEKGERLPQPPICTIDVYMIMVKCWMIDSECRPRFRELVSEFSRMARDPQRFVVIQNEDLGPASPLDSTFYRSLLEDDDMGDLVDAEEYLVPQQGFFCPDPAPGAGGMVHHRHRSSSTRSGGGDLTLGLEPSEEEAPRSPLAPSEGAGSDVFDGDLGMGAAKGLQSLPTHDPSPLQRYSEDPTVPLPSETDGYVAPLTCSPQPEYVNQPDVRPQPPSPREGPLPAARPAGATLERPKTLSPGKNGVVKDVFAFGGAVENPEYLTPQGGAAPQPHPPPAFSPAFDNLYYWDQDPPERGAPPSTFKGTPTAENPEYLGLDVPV
Assay: HER2 inhibition assay, radiometric protein kinase assay (33PanQinase Activity Assay)
Type: biochemical
Conditions: binding free energy difference relative to bozepinib (3), extracted from IC50 values
Method: The IC50 profile of the target compounds was determined using isolated HER2. IC50 values were measured by testing 10 concentrations (1 × 10 ^−4 M to 3 × 10 ^−9 M) of each compound in singlicate. […] Incorporation of ^33Pi was determined with a microplate scintillation counter (Microbeta, Wallac, Waltham, MA). Human epidermal growth factor receptor 2 (HER2) is overexpressed in about 20% of all breast cancers. […] This prompted us to evaluated compounds 7–9 for their in vitro HER2 inhibitory effect. […]
measurement label: ΔΔG Experiment (3 -> L) (kcal/mol)

molecule="O=[N+]([O-])c1ccc(S(=O)(=O)N2CC(n3cnc4c(Nc5ccccc5)nc(Cl)nc43)OCc3ccccc32)cc1 (stereo not drawn)" measurement_label="ΔΔG Experiment (3 -> L)" op== numeric_readout=0.41
molecule="CN(C)c1nc(Cl)nc2c1ncn2C1CN(S(=O)(=O)c2ccc([N+](=O)[O-])cc2)c2ccccc2CO1 (stereo not drawn)" measurement_label="ΔΔG Experiment (3 -> L)" op== numeric_readout=-0.44
molecule="Cc1ccc(S(=O)(=O)N2CC(n3cnc4c(Br)ncnc43)OCc3ccccc32)cc1 (stereo not drawn)" measurement_label="ΔΔG Experiment (3 -> L)" op=> numeric_readout=0.76
molecule="Cc1ccc(S(=O)(=O)N2CC(n3cnc4c(Cl)ncnc43)OCc3ccccc32)cc1 (stereo not drawn)" measurement_label="ΔΔG Experiment (3 -> L)" op=> numeric_readout=0.76
molecule="Cc1ccc(S(=O)(=O)N2CC(n3cnc4c(Cl)nc(Cl)nc43)OCc3ccccc32)cc1 (stereo not drawn)" measurement_label="ΔΔG Experiment (3 -> L)" op=> numeric_readout=0.76
molecule="O=[N+]([O-])c1ccc(S(=O)(=O)N2CC(n3cnc4c(Sc5ccccc5)nc(Cl)nc43)OCc3ccccc32)cc1 (stereo not drawn)" measurement_label="ΔΔG Experiment (3 -> L)" op== numeric_readout=-0.8

----------
molecular target: isolated HER2 (Homo sapiens); test: HER2 inhibition assay, radiometric protein kinase assay (33PanQinase Activity Assay); conditions: isolated HER2, radiometric assay, 10 concentrations in singlicate
List of IC50 values.
measurement label: IC50 (µM)

compound="O=[N+]([O-])c1ccc(S(=O)(=O)N2CC(n3cnc4c(Nc5ccccc5)nc(Cl)nc43)OCc3ccccc32)cc1 (stereo not shown)" test_system="isolated HER2 (Homo sapiens)" measurement_label=IC50 op== numeric_readout=55.5
compound="Cc1ccc(S(=O)(=O)N2CC(n3cnc4c(Br)ncnc43)OCc3ccccc32)cc1 (stereo not shown)" test_system="isolated HER2 (Homo sapiens)" measurement_label=IC50 op=> numeric_readout=100
compound="Cc1ccc(S(=O)(=O)N2CC(n3cnc4c(Cl)ncnc43)OCc3ccccc32)cc1 (stereo not shown)" test_system="isolated HER2 (Homo sapiens)" measurement_label=IC50 op=> numeric_readout=100
compound="O=[N+]([O-])c1ccc(S(=O)(=O)N2CC(n3cnc4c(Sc5ccccc5)nc(Cl)nc43)OCc3ccccc32)cc1 (stereo not shown)" test_system="isolated HER2 (Homo sapiens)" measurement_label=IC50 op== numeric_readout=7.31

----------
List of melting point values.
measurement label: melting point

compound="O=[N+]([O-])c1ccc(S(=O)(=O)N2CC(n3cnc4c(Sc5ccccc5)nc(Cl)nc43)OCc3ccccc32)cc1 (stereo not drawn) [Compound 9a]" result="183 to 185 °C"
compound="O=[N+]([O-])c1ccccc1S(=O)(=O)N1CC(n2cnc3c(Nc4ccccc4)nc(Cl)nc32)OCc2ccccc21 (stereo not drawn) [Compound 9g]" result="152 to 157 °C"
compound="O=[N+]([O-])c1ccccc1S(=O)(=O)N1CC(n2cnc3c(Oc4ccccc4)nc(Cl)nc32)OCc2ccccc21 (stereo not drawn) [Compound 9f]" result="142 to 144 °C"
